target: FGFR4 (h) (Homo sapiens, UniProt P22455); assay: FGFR4 (enzymatic assay), TR-FRET; type: biochemical; details: read-out: FGFR 4 pIC50 (converted)
Sequence (P22455 22-802): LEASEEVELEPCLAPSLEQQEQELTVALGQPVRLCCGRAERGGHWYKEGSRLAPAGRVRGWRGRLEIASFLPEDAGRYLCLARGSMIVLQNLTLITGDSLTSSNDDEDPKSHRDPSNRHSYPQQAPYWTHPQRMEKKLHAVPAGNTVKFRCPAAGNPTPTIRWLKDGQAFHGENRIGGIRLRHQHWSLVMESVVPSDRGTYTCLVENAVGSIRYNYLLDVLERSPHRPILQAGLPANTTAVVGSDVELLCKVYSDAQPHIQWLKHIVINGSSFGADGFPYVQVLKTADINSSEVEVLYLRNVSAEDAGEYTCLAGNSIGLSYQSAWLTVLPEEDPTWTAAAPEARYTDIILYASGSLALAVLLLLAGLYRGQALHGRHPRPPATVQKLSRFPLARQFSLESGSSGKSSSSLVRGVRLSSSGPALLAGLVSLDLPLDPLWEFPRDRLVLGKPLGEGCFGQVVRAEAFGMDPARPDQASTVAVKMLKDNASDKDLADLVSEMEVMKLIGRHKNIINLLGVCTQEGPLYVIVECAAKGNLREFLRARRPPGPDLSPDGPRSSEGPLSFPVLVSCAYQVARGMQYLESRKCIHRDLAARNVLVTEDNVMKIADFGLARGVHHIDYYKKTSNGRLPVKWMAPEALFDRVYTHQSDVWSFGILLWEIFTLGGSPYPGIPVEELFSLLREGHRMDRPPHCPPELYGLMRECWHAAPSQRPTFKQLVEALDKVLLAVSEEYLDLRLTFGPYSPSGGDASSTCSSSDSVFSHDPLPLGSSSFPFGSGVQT
Property label: log10(IC50) (log10 of the value in µM)

INSERT INTO results (smiles_data, observed_value) VALUES
  ('COCCN(c1cc(OC)cc(OC)c1)c1ccc2ncc(-c3ccn(C)c3)nc2c1', -1.61),
  ('COc1cc(OC)cc(N(CC2CC2)c2ccc3ncc(-c4ccnc(N5CCN(C)CC5)c4)nc3c2)c1', -0.52),
  ('COc1cc(OC)cc(N(CCCO)c2ccc3ncc(-c4ccnc(C(=O)NCCCN)c4)nc3c2)c1', -0.94),
  ('CNC(=O)c1cc(-c2cnc3ccc(N(CCNCC(F)(F)F)c4cc(OC)cc(OC)c4)cc3n2)ccn1', -0.77),
  ('COc1cc(OC)cc(N(CCCNCC(=O)O)c2ccc3ncc(-c4ccnc(C(=O)NCCCCN)c4)nc3c2)c1', -1.29),
  ('COc1cc(OC)cc(N(CCCNCC(F)(F)F)c2ccc3ncc(-c4ccnc(C(=O)NCCCN)c4)nc3c2)c1', -0.22),
  ('COc1cc(OC)cc(N(CCCO)c2ccc3ncc(-c4ccc(N(C)C(=O)OC(C)(C)C)nc4)nc3c2)c1', -0.76);

Ref: patent US10052320B2
